# Tested on: human glioblastoma astrocytoma (U373) cells
# experimentSummary: (Photo-)cytotoxicity on 2D cell monolayers, resazurin assay, U373
# testParameters: U373, dark vs 480 nm (10 min, 3.1 J/cm^2)
measuredAttribute: PI (480 nm)

compound: C(=C\c1ccnc(-c2cc(/C=C/c3ccccc3)ccn2)c1)/c1ccccc1.C(=C\c1ccnc(-c2cc(/C=C/c3ccccc3)ccn2)c1)/c1ccccc1.C(=C\c1ccnc(-c2cc(/C=C/c3ccccc3)ccn2)c1)/c1ccccc1.F[P-](F)(F)(F)(F)F.F[P-](F)(F)(F)(F)F.[Ru+2] [Compound 1]
result: >1.9
--
compound: COc1ccc(/C=C/c2ccnc(-c3cc(/C=C/c4ccc(OC)cc4)ccn3)c2)cc1.COc1ccc(/C=C/c2ccnc(-c3cc(/C=C/c4ccc(OC)cc4)ccn3)c2)cc1.F[P-](F)(F)(F)(F)F.F[P-](F)(F)(F)(F)F.[Ru+2].c1ccc(-c2ccccn2)nc1 [Compound 5]
result: >6.5
--
compound: COc1ccc(C=Cc2ccnc(-c3cc(C=Cc4ccc(OC)cc4)ccn3)c2)cc1.F[P-](F)(F)(F)(F)F.F[P-](F)(F)(F)(F)F.[Ru+2].c1ccc(-c2ccnc3c2ccc2c(-c4ccccc4)ccnc23)cc1.c1ccc(-c2ccnc3c2ccc2c(-c4ccccc4)ccnc23)cc1 [Compound 11]
result: 20.6

----------
# experimentSummary: Emission measurement in CH3CN
# Assay type: physicochemical
# testParameters: room temperature, excitation at 355 nm
We begin with a simple list: items and their reported λem/nm (Emission maximum).

substanceSmiles: CN(C)c1ccc(/C=C/c2ccnc(-c3cc(/C=C/c4ccc(N(C)C)cc4)ccn3)c2)cc1.F[P-](F)(F)(F)(F)F.F[P-](F)(F)(F)(F)F.[Ru+2].c1cnc2c(c1)ccc1cccnc12.c1cnc2c(c1)ccc1cccnc12
λem/nm (Emission maximum), nm: 698
--
substanceSmiles: CN(C)c1ccc(/C=C/c2ccnc(-c3cc(/C=C/c4ccc(N(C)C)cc4)ccn3)c2)cc1.CN(C)c1ccc(/C=C/c2ccnc(-c3cc(/C=C/c4ccc(N(C)C)cc4)ccn3)c2)cc1.F[P-](F)(F)(F)(F)F.F[P-](F)(F)(F)(F)F.[Ru+2].c1ccc(-c2ccccn2)nc1
λem/nm (Emission maximum), nm: 703
--
substanceSmiles: C(=C\c1ccnc(-c2cc(/C=C/c3ccccc3)ccn2)c1)/c1ccccc1.C(=C\c1ccnc(-c2cc(/C=C/c3ccccc3)ccn2)c1)/c1ccccc1.C(=C\c1ccnc(-c2cc(/C=C/c3ccccc3)ccn2)c1)/c1ccccc1.F[P-](F)(F)(F)(F)F.F[P-](F)(F)(F)(F)F.[Ru+2]
λem/nm (Emission maximum), nm: 677
--
substanceSmiles: CN(C)c1ccc(/C=C/c2ccnc(-c3cc(/C=C/c4ccc(N(C)C)cc4)ccn3)c2)cc1.CN(C)c1ccc(/C=C/c2ccnc(-c3cc(/C=C/c4ccc(N(C)C)cc4)ccn3)c2)cc1.CN(C)c1ccc(/C=C/c2ccnc(-c3cc(/C=C/c4ccc(N(C)C)cc4)ccn3)c2)cc1.F[P-](F)(F)(F)(F)F.F[P-](F)(F)(F)(F)F.[Ru+2]
λem/nm (Emission maximum), nm: 709
--
substanceSmiles: CN(C)c1ccc(/C=C/c2ccnc(-c3cc(/C=C/c4ccc(N(C)C)cc4)ccn3)c2)cc1.F[P-](F)(F)(F)(F)F.F[P-](F)(F)(F)(F)F.[Ru+2].c1ccc(-c2ccnc3c2ccc2c(-c4ccccc4)ccnc23)cc1.c1ccc(-c2ccnc3c2ccc2c(-c4ccccc4)ccnc23)cc1
λem/nm (Emission maximum), nm: 698
--
substanceSmiles: COc1ccc(C=Cc2ccnc(-c3cc(C=Cc4ccc(OC)cc4)ccn3)c2)cc1.F[P-](F)(F)(F)(F)F.F[P-](F)(F)(F)(F)F.[Ru+2].c1ccc(-c2ccnc3c2ccc2c(-c4ccccc4)ccnc23)cc1.c1ccc(-c2ccnc3c2ccc2c(-c4ccccc4)ccnc23)cc1
λem/nm (Emission maximum), nm: 663

----------
We begin with a simple list: items and their reported ϕem (Luminescence Quantum Yield).
# experimentSummary: Luminescence quantum yield measurements
# Assay type: physicochemical
# Parameters: key: fraction, relative to [Ru(bipy)3]Cl2 reference in CH3CN (Φem=5.9%)
# testParameters: CH3CN, room temperature, excitation at 355 nm
measuredAttribute: ϕem (Luminescence Quantum Yield)

substanceSmiles: COc1ccc(/C=C/c2ccnc(-c3cc(/C=C/c4ccc(OC)cc4)ccn3)c2)cc1.COc1ccc(/C=C/c2ccnc(-c3cc(/C=C/c4ccc(OC)cc4)ccn3)c2)cc1.COc1ccc(/C=C/c2ccnc(-c3cc(/C=C/c4ccc(OC)cc4)ccn3)c2)cc1.F[P-](F)(F)(F)(F)F.F[P-](F)(F)(F)(F)F.[Ru+2]
valueComparator: =
quantitativeReadout: 0.011
//
substanceSmiles: CN(C)c1ccc(/C=C/c2ccnc(-c3cc(/C=C/c4ccc(N(C)C)cc4)ccn3)c2)cc1.CN(C)c1ccc(/C=C/c2ccnc(-c3cc(/C=C/c4ccc(N(C)C)cc4)ccn3)c2)cc1.F[P-](F)(F)(F)(F)F.F[P-](F)(F)(F)(F)F.[Ru+2].c1ccc(-c2ccccn2)nc1
valueComparator: =
quantitativeReadout: 0.004
//
substanceSmiles: CN(C)c1ccc(/C=C/c2ccnc(-c3cc(/C=C/c4ccc(N(C)C)cc4)ccn3)c2)cc1.F[P-](F)(F)(F)(F)F.F[P-](F)(F)(F)(F)F.[Ru+2].c1ccc(-c2ccccn2)nc1.c1ccc(-c2ccccn2)nc1
valueComparator: =
quantitativeReadout: 0.005
//
substanceSmiles: COc1ccc(/C=C/c2ccnc(-c3cc(/C=C/c4ccc(OC)cc4)ccn3)c2)cc1.F[P-](F)(F)(F)(F)F.F[P-](F)(F)(F)(F)F.[Ru+2].c1cnc2c(c1)ccc1cccnc12.c1cnc2c(c1)ccc1cccnc12
valueComparator: =
quantitativeReadout: 0.019
//
substanceSmiles: C(=C\c1ccnc(-c2cc(/C=C/c3ccccc3)ccn2)c1)/c1ccccc1.C(=C\c1ccnc(-c2cc(/C=C/c3ccccc3)ccn2)c1)/c1ccccc1.C(=C\c1ccnc(-c2cc(/C=C/c3ccccc3)ccn2)c1)/c1ccccc1.F[P-](F)(F)(F)(F)F.F[P-](F)(F)(F)(F)F.[Ru+2]
valueComparator: =
quantitativeReadout: 0.019
//
substanceSmiles: CN(C)c1ccc(/C=C/c2ccnc(-c3cc(/C=C/c4ccc(N(C)C)cc4)ccn3)c2)cc1.CN(C)c1ccc(/C=C/c2ccnc(-c3cc(/C=C/c4ccc(N(C)C)cc4)ccn3)c2)cc1.CN(C)c1ccc(/C=C/c2ccnc(-c3cc(/C=C/c4ccc(N(C)C)cc4)ccn3)c2)cc1.F[P-](F)(F)(F)(F)F.F[P-](F)(F)(F)(F)F.[Ru+2]
valueComparator: <
quantitativeReadout: 0.001
//
substanceSmiles: COc1ccc(C=Cc2ccnc(-c3cc(C=Cc4ccc(OC)cc4)ccn3)c2)cc1.F[P-](F)(F)(F)(F)F.F[P-](F)(F)(F)(F)F.[Ru+2].c1ccc(-c2ccnc3c2ccc2c(-c4ccccc4)ccnc23)cc1.c1ccc(-c2ccnc3c2ccc2c(-c4ccccc4)ccnc23)cc1
valueComparator: =
quantitativeReadout: 0.027

----------
# System: human glioblastoma astrocytoma (U373) cells
# experimentSummary: (Photo-)cytotoxicity on 2D cell monolayers, resazurin assay, U373
# testParameters: read-out: IC50 480 nm (10 min, 3.1 J/cm^2); U373, irradiation 480 nm (10 min, 3.1 J/cm^2); compounds 1-3 as chloride salts
measuredAttribute: IC50 (µM)

compound: F[P-](F)(F)(F)(F)F.F[P-](F)(F)(F)(F)F.[Ru+2].c1cnc2c(c1)ccc1cccnc12.c1cnc2c(c1)ccc1cccnc12.c1cnc2c(c1)ccc1cccnc12 [[Ru(1,10-phenanthroline)3][PF6]2, reference compound]
measuredAttribute: IC50
valueComparator: >
quantitativeReadout: 100
--
compound: COc1ccc(C=Cc2ccnc(-c3cc(C=Cc4ccc(OC)cc4)ccn3)c2)cc1.F[P-](F)(F)(F)(F)F.F[P-](F)(F)(F)(F)F.[Ru+2].c1ccc(-c2ccnc3c2ccc2c(-c4ccccc4)ccnc23)cc1.c1ccc(-c2ccnc3c2ccc2c(-c4ccccc4)ccnc23)cc1
measuredAttribute: IC50
valueComparator: =
quantitativeReadout: 0.9
--
compound: CN(C)c1ccc(/C=C/c2ccnc(-c3cc(/C=C/c4ccc(N(C)C)cc4)ccn3)c2)cc1.CN(C)c1ccc(/C=C/c2ccnc(-c3cc(/C=C/c4ccc(N(C)C)cc4)ccn3)c2)cc1.CN(C)c1ccc(/C=C/c2ccnc(-c3cc(/C=C/c4ccc(N(C)C)cc4)ccn3)c2)cc1.F[P-](F)(F)(F)(F)F.F[P-](F)(F)(F)(F)F.[Ru+2]
measuredAttribute: IC50
valueComparator: =
quantitativeReadout: 49.1
--
compound: CN(C)c1ccc(/C=C/c2ccnc(-c3cc(/C=C/c4ccc(N(C)C)cc4)ccn3)c2)cc1.CN(C)c1ccc(/C=C/c2ccnc(-c3cc(/C=C/c4ccc(N(C)C)cc4)ccn3)c2)cc1.F[P-](F)(F)(F)(F)F.F[P-](F)(F)(F)(F)F.[Ru+2].c1ccc(-c2ccccn2)nc1
measuredAttribute: IC50
valueComparator: =
quantitativeReadout: 14.3

----------
We begin with a simple list: items and their reported PI (2-Photon).
# Tested on: HeLa MCTS
# experimentSummary: (Photo-)cytotoxicity on 3D multicellular tumor spheroids (ATP, CellTiter-Glo 3D)
# Type: cell-based, human
# testParameters: dark vs 2-Photon irradiation (800 nm, 10 J/cm^2)

molecule: CN(C)c1ccc(/C=C/c2ccnc(-c3cc(/C=C/c4ccc(N(C)C)cc4)ccn3)c2)cc1.F[P-](F)(F)(F)(F)F.F[P-](F)(F)(F)(F)F.[Ru+2].c1ccc(-c2ccnc3c2ccc2c(-c4ccccc4)ccnc23)cc1.c1ccc(-c2ccnc3c2ccc2c(-c4ccccc4)ccnc23)cc1
PI (2-Photon): 9.0

molecule: CN(C)c1ccc(/C=C/c2ccnc(-c3cc(/C=C/c4ccc(N(C)C)cc4)ccn3)c2)cc1.F[P-](F)(F)(F)(F)F.F[P-](F)(F)(F)(F)F.[Ru+2].c1ccc(-c2ccccn2)nc1.c1ccc(-c2ccccn2)nc1
PI (2-Photon): >11.3

molecule: COc1ccc(/C=C/c2ccnc(-c3cc(/C=C/c4ccc(OC)cc4)ccn3)c2)cc1.F[P-](F)(F)(F)(F)F.F[P-](F)(F)(F)(F)F.[Ru+2].c1cnc2c(c1)ccc1cccnc12.c1cnc2c(c1)ccc1cccnc12
PI (2-Photon): >250.0

molecule: CN(C)c1ccc(/C=C/c2ccnc(-c3cc(/C=C/c4ccc(N(C)C)cc4)ccn3)c2)cc1.CN(C)c1ccc(/C=C/c2ccnc(-c3cc(/C=C/c4ccc(N(C)C)cc4)ccn3)c2)cc1.F[P-](F)(F)(F)(F)F.F[P-](F)(F)(F)(F)F.[Ru+2].c1ccc(-c2ccccn2)nc1
PI (2-Photon): >1.6

molecule: COc1ccc(C=Cc2ccnc(-c3cc(C=Cc4ccc(OC)cc4)ccn3)c2)cc1.F[P-](F)(F)(F)(F)F.F[P-](F)(F)(F)(F)F.[Ru+2].c1ccc(-c2ccnc3c2ccc2c(-c4ccccc4)ccnc23)cc1.c1ccc(-c2ccnc3c2ccc2c(-c4ccccc4)ccnc23)cc1
PI (2-Photon): 36.6

molecule: C1=Cc2nc1c(-c1ccccc1)c1ccc([nH]1)c(-c1ccccc1)c1nc(c(-c3ccccc3)c3ccc([nH]3)c2-c2ccccc2)C=C1 [Compound H2TPP, tetraphenylporphyrin, reference compound]
PI (2-Photon): >100

molecule: COc1ccc(/C=C/c2ccnc(-c3cc(/C=C/c4ccc(OC)cc4)ccn3)c2)cc1.COc1ccc(/C=C/c2ccnc(-c3cc(/C=C/c4ccc(OC)cc4)ccn3)c2)cc1.F[P-](F)(F)(F)(F)F.F[P-](F)(F)(F)(F)F.[Ru+2].c1ccc(-c2ccccn2)nc1
PI (2-Photon): >7.5

molecule: CN(C)c1ccc(/C=C/c2ccnc(-c3cc(/C=C/c4ccc(N(C)C)cc4)ccn3)c2)cc1.F[P-](F)(F)(F)(F)F.F[P-](F)(F)(F)(F)F.[Ru+2].c1cnc2c(c1)ccc1cccnc12.c1cnc2c(c1)ccc1cccnc12
PI (2-Photon): >10.8
